Numbers sourced from ChEMBL document CHEMBL1240386.

# Measurement notes: Tmax in tuberculosis patient at 15 mg/kg, po by HPLC analysis
# Format: ADME, organism-based
# Parameters: dose 15 mg/kg, route oral
# Conditions: human, in vivo
Property label: Tmax (h)
Answer in h, number only, no unit symbol.

stdin: Provide Tmax value for the following compound: CC[C@@H](CO)NCCN[C@@H](CC)CO
stdout: 3

----------
# Measurement notes: Half life in diabetic tuberculosis patient at 10 mg/kg, po and 10 mg/kg, iv by HPLC analysis
# Type: ADME, organism-based
# Conditions: human, in vivo
Property label: half-life

stdin: Provide half-life value for the following compound: CO[C@H]1/C=C/O[C@@]2(C)Oc3c(C)c(O)c4c(O)c(c(/C=N/N5CCN(C)CC5)c(O)c4c3C2=O)NC(=O)/C(C)=C\C=C\[C@H](C)[C@H](O)[C@@H](C)[C@@H](O)[C@@H](C)[C@H](O)[C@@H]1C
stdout: 2.3 h

----------
# Measurement notes: AUC (0 to 24 hrs) in tuberculosis patient at 10 mg/kg, po by HPLC analysis
# Format: ADME, organism-based
# Set-up: time < 24 hr, dose 10 mg/kg, route oral
# Conditions: human, plasma
Property label: AUC(0-t) at 24 h (ng·h/mL)
Answer in ng·h/mL, number only, no unit symbol.

stdin: Provide AUC(0-t) at 24 h value for the following compound: CO[C@H]1/C=C/O[C@@]2(C)Oc3c(C)c(O)c4c(O)c(c(/C=N/N5CCN(C)CC5)c(O)c4c3C2=O)NC(=O)/C(C)=C\C=C\[C@H](C)[C@H](O)[C@@H](C)[C@@H](O)[C@@H](C)[C@H](OC(C)=O)[C@@H]1C [RIFAMPIN]
stdout: 50600

stdin: Provide AUC(0-t) at 24 h value for the following compound: CO[C@H]1/C=C/O[C@@]2(C)Oc3c(C)c(O)c4c(O)c(c(/C=N/N5CCN(C)CC5)c(O)c4c3C2=O)NC(=O)/C(C)=C\C=C\[C@H](C)[C@H](O)[C@@H](C)[C@@H](O)[C@@H](C)[C@H](O)[C@@H]1C
stdout: 8300

----------
# Measurement notes: Oral bioavailability in tuberculosis patient at 10 mg/kg by HPLC analysis
# Type: ADME, organism-based
# Conditions: human, in vivo
Property label: bioavailability (%)
Answer in %, number only, no unit symbol.

stdin: Provide bioavailability value for the following compound: CO[C@H]1/C=C/O[C@@]2(C)Oc3c(C)c(O)c4c(O)c(c(/C=N/N5CCN(C)CC5)c(O)c4c3C2=O)NC(=O)/C(C)=C\C=C\[C@H](C)[C@H](O)[C@@H](C)[C@@H](O)[C@@H](C)[C@H](OC(C)=O)[C@@H]1C
stdout: 74

----------
# Measurement notes: Bioavailability in diabetic tuberculosis patient at 10 mg/kg, po and 10 mg/kg, iv by HPLC analysis
# Assay type: ADME, organism-based
# Conditions: human, in vivo
Property label: bioavailability (%)
Answer in %, number only, no unit symbol.

stdin: Provide bioavailability value for the following compound: CO[C@H]1/C=C/O[C@@]2(C)Oc3c(C)c(O)c4c(O)c(c(/C=N/N5CCN(C)CC5)c(O)c4c3C2=O)NC(=O)/C(C)=C\C=C\[C@H](C)[C@H](O)[C@@H](C)[C@@H](O)[C@@H](C)[C@H](OC(C)=O)[C@@H]1C [RIFAMPIN]
stdout: 69

----------
# Measurement notes: Cmax in tuberculosis patient at 10 mg/kg, po by HPLC analysis
# Format: ADME, organism-based
# Parameters: dose 10 mg/kg, route oral
# Conditions: human, in vivo
Property label: Cmax (ng/mL)
Answer in ng/mL, number only, no unit symbol.

stdin: Provide Cmax value for the following compound: CO[C@H]1/C=C/O[C@@]2(C)Oc3c(C)c(O)c4c(O)c(c(/C=N/N5CCN(C)CC5)c(O)c4c3C2=O)NC(=O)/C(C)=C\C=C\[C@H](C)[C@H](O)[C@@H](C)[C@@H](O)[C@@H](C)[C@H](O)[C@@H]1C
stdout: 1400

stdin: Provide Cmax value for the following compound: CO[C@H]1/C=C/O[C@@]2(C)Oc3c(C)c(O)c4c(O)c(c(/C=N/N5CCN(C)CC5)c(O)c4c3C2=O)NC(=O)/C(C)=C\C=C\[C@H](C)[C@H](O)[C@@H](C)[C@@H](O)[C@@H](C)[C@H](OC(C)=O)[C@@H]1C [RIFAMPIN]
stdout: 9600

----------
# Measurement notes: Cmax in tuberculosis patient at 30 mg/kg, po by HPLC analysis
# Type: ADME, organism-based
# Design: dose 30 mg/kg, route oral
# Conditions: human, in vivo
Property label: Cmax (ng/mL)
Answer in ng/mL, number only, no unit symbol.

stdin: Provide Cmax value for the following compound: NC(=O)c1cnccn1 [PYRAZINAMIDE]
stdout: 47000

----------
# Measurement notes: Cmax in diabetic tuberculosis patient at 30 mg/kg, po by HPLC analysis
# Format: ADME, organism-based
# Parameters: dose 30 mg/kg, route oral
# Conditions: human, in vivo
Property label: Cmax
Quote the value and follow it with the unit of measurement.

stdin: Provide Cmax value for the following compound: NC(=O)c1cnccn1 [PYRAZINAMIDE]
stdout: 45500 ng/mL

----------
# Measurement notes: Cmax in diabetic tuberculosis patient at 15 mg/kg, po by HPLC analysis
# Type: ADME, organism-based
# Set-up: dose 15 mg/kg, route oral
# Conditions: human, in vivo
Property label: Cmax (ng/mL)
Answer in ng/mL, number only, no unit symbol.

stdin: Provide Cmax value for the following molecule: CC[C@@H](CO)NCCN[C@@H](CC)CO [ETHAMBUTOL]
stdout: 2200

----------
# Measurement notes: Tmax in diabetic tuberculosis patient at 15 mg/kg, po by HPLC analysis
# Format: ADME, organism-based
# Parameters: dose 15 mg/kg, route oral
# Conditions: human, in vivo
Property label: Tmax (h)
Answer in h, number only, no unit symbol.

stdin: Provide Tmax value for the following compound: CC[C@@H](CO)NCCN[C@@H](CC)CO [ETHAMBUTOL]
stdout: 3

----------
# Measurement notes: Cmax in tuberculosis patient at 15 mg/kg, po by HPLC analysis
# Format: ADME, organism-based
# Design: dose 15 mg/kg, route oral
# Conditions: human, in vivo
Property label: Cmax (ng/mL)
Answer in ng/mL, number only, no unit symbol.

stdin: Provide Cmax value for the following molecule: CC[C@@H](CO)NCCN[C@@H](CC)CO
stdout: 1950

----------
# Measurement notes: Tmax in diabetic tuberculosis patient at 30 mg/kg, po by HPLC analysis
# Assay type: ADME, organism-based
# Parameters: dose 30 mg/kg, route oral
# Conditions: human, in vivo
Property label: Tmax (h)
Answer in h, number only, no unit symbol.

stdin: Provide Tmax value for the following compound: NC(=O)c1cnccn1 [PYRAZINAMIDE]
stdout: 1

----------
# Measurement notes: AUC (0 to 24 hrs) in diabetic tuberculosis patient at 15 mg/kg, po by HPLC analysis
# Type: ADME, organism-based
# Parameters: time < 24 hr, dose 15 mg/kg, route oral
# Conditions: human, plasma
Property label: AUC(0-t) at 24 h (ng·h/mL)
Answer in ng·h/mL, number only, no unit symbol.

stdin: Provide AUC(0-t) at 24 h value for the following compound: CC[C@@H](CO)NCCN[C@@H](CC)CO
stdout: 13800

----------
# Measurement notes: AUC (0 to 24 hrs) in diabetic tuberculosis patient at 30 mg/kg, po by HPLC analysis
# Format: ADME, organism-based
# Set-up: time < 24 hr, dose 30 mg/kg, route oral
# Conditions: human, plasma
Property label: AUC(0-t) at 24 h (µg·h/mL)
Answer in µg·h/mL, number only, no unit symbol.

stdin: Provide AUC(0-t) at 24 h value for the following compound: NC(=O)c1cnccn1 [PYRAZINAMIDE]
stdout: 409

----------
# Measurement notes: AUC (0 to 24 hrs) in tuberculosis patient at 15 mg/kg, po by HPLC analysis
# Type: ADME, organism-based
# Design: time < 24 hr, dose 15 mg/kg, route oral
# Conditions: human, plasma
Property label: AUC(0-t) at 24 h

stdin: Provide AUC(0-t) at 24 h value for the following compound: CC[C@@H](CO)NCCN[C@@H](CC)CO [ETHAMBUTOL]
stdout: 13500 ng·h/mL

----------
# Measurement notes: Tmax in tuberculosis patient at 30 mg/kg, po by HPLC analysis
# Type: ADME, organism-based
# Set-up: dose 30 mg/kg, route oral
# Conditions: human, in vivo
Property label: Tmax
Quote the value and follow it with the unit of measurement.

stdin: Provide Tmax value for the following compound: NC(=O)c1cnccn1 [PYRAZINAMIDE]
stdout: 1.5 h
